# target: T1, OsWRKY45-DBD (OsWRKY45-1) (Oryza sativa Japonica subspecies, UniProt Q5W6D6 104-182)
# T1 sequence: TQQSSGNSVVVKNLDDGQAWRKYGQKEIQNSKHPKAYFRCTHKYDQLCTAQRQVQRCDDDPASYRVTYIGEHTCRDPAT
# experiment: EMSA
test_readout: binding result

{"binder": "MUT11T (dsDNA) DNA 1: GATATTTGACTGGA DNA 2: TCCAGTCAAATATC", "value_measured": "binds"}
{"binder": "MUT8A (dsDNA) DNA 1: GATATTTAACCGGA DNA 2: TCCGGTTAAATATC", "value_measured": "no binding"}
{"binder": "MUT10A (dsDNA) DNA 1: GATATTTGAACGGA DNA 2: TCCGTTCAAATATC", "value_measured": "no binding"}
{"binder": "MUT7C (dsDNA) DNA 1: GATATTCGACCGGA DNA 2: TCCGGTCGAATATC", "value_measured": "no binding"}

Batch of 2 binders: report binding result for each.
1. MUT9C (dsDNA) DNA 1: GATATTTGCCCGGA DNA 2: TCCGGGCAAATATC
2. MUT11A (dsDNA) DNA 1: GATATTTGACAGGA DNA 2: TCCTGTCAAATATC

1. no binding
2. no binding
